# Tested on: K 562 human myeloid cell line
# method.description: Natural lymphocyte cytotoxicity against K 562 cells (51Cr release)
# Format: cell-based
# condition.summary: PBL, 35 femtomoles, 2.5 hours 37° C., 40:1; experiment with untreated control 80.4 ± 1.0
# Method: Aliquots of these lymphocytes were also retained as controls and not incubated. […] The purified synthetic SCM factor molecule and peptides F1-F5, F7, and F8, as described above in Example 16, were investigated to determine their suppressive effect on the natural cytotoxicity of lymphocytes against cancer cells, using the human myeloid cell line K 562 as target as measured by the conventional ^51 Cr release method (Example 13). […]
Where no end group is shown, it is not given here.
Below, each of the sequences is paired with its reported Percent Cytotoxicity value.
The reply should contain only the number, in %.

Some sequences with known Percent Cytotoxicity results, for comparison:
MIPPEVKFNKPFVFLMDQNTK [F1]	81.0
FLMIDQNTK [F4, F-L-M-I-D-Q-N-T-K]	81.0
MIPPEVKFNKPFVFLMIDQNTKVPLFMGK [Synthetic SCM Factor]	3.1
FNKPFVFLMIDQNTKVPLFMGK [F2]	2.6
MIPPEVKFNKPFVF [F5, M-I-P-P-E-V-K-F-N-K-P-F-V-F]	79.8

# evaluate next
Enquiry: Given FNKPFVFLMIDQNTK [F3, F-N-K-P-F-V-F-L-M-I-D-Q-N-T-K] , respond with its Percent Cytotoxicity.
Return: 80.5
